Target: T1, Glutathione S-transferase (GST)-tagged AITR (human, UniProt Q9Y5U5 26-139)
T1 construct: also called GST-AITR antigen; GST-AITR analyte; not shown: Glutathione S-transferase (GST) tag
T1 sequence (looked up): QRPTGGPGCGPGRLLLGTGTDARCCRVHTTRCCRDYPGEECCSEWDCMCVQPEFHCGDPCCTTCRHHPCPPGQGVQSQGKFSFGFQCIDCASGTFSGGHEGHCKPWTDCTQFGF
Assay: SPR, Fab against the AITR antigen
assay-readout: pKd
Give bare numbers, as −log10 of the molar value.

Illustrative cases are given below, each with its answer.
binder	assay-readout	endpoint-result
IRTCA-A10 (Clone H1A10) Fab (Fab, V domains shown) VH: QVQLVQSGTQVKMPGASVKVSCKASGYTFDDYGIGWVRQAPGQGLEWMGWISPYTHRTNSSPKLQDRVTMTTDTSTSTAYMELRSLRSDDTAVYYCARDGTYYDFWSGYFDNAAFDSWGQGTLVTVSS VL: QSVVTQPPSVSAAPGQKVTISCSGSTSNIGNNYVSWYQQLPGTAPKLLIYDNYKRPSGIPDRFSGSKSGTSATLGITGLRTGDEADYFCGTWDSSLNAWVFGGGTKLTVL	pKd	7.87
IRTCA-A12 (Clone H2A10) Fab (Fab, V domains shown) VH: QVQLVQSGTQVKMPGASVKVSCKASGYTFDDYGIGWVRQAPGQGLEWMGWISPYTHRTNSSPKLQDRVTMTTDTSTSTAYMELRSLRSDDTAVYYCARDGTYYDFWSGYFDNATFDFWGQGTLVTVSS VL: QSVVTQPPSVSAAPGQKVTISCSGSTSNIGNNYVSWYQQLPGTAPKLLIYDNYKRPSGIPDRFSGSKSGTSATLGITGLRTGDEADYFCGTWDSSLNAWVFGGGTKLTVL	pKd	8.38

The reported pKd of the binder Parental IRTCA-A Fab (Fab, V domains shown) VH: QVQLVQSGTQVKMPGASVKVSCKASGYTFDDYGIGWVRQAPGQGLEWMGWISPYTHRTNSSPKLQDRVTMTTDTSTSTAYMELRSLRSDDTAVYYCARDGTYYDFWSGYFDNGAFDIWGQGTLVTVSS VL: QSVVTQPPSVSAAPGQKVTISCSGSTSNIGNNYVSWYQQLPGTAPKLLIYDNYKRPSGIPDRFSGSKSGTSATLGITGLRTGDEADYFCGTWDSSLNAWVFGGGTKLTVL was 6.94

The reported measurements were obtained from patent US20190330358A1.
